IC50, Voltage-gated inwardly rectifying potassium channel KCNH2 (Homo sapiens, UniProt Q12809): measured values
Kindly provide the numeric value in nM only, without the unit symbol.

COMPOUND	MEASURE_UNIT	IC50
Cc1ncoc1-c1nnc(SCCCN2CCC3CC3(c3ccc(C(F)(F)F)cc3)C2)n1C (stereo not drawn)	nM	2000

What measured IC50 is associated with Cc1ncoc1-c1nnc(SCCCN[C@@H]2CC[C@]3(c4ccc(C(F)(F)F)cc4F)CC23)n1C (stereo partly drawn) on Voltage-gated inwardly rectifying potassium channel KCNH2 (Homo sapiens, UniProt Q12809)? 631

Recall the recorded IC50 for Cc1ncoc1-c1nnc(SCCCN[C@@H]2CC[C@]3(c4ccc(C(F)(F)F)cc4)CC23)n1C (stereo in doubt; 22) with Voltage-gated inwardly rectifying potassium channel KCNH2 (Homo sapiens, UniProt Q12809) and state it. 251

Requested read-out IC50, target or system Voltage-gated inwardly rectifying potassium channel KCNH2 (Homo sapiens, UniProt Q12809), entry Cc1ncoc1-c1nnc(SCCCNC2CC[C@]3(c4ccc(C(F)(F)F)cc4)CC23)n1C (single isomer, unassigned) 2510
